Taken from patent US20100227921A1.

# method: Comparative in vivo bioavailability study in the dog (oral gavage, plasma LC-MS-MS)
# measurement-context: Beagle, plasma, po, 1 mg/kg, oral tapentadol HCl 1 mg tapentadol base equiv/kg, mean of 5 dogs, read-out: AUC of tapentadol
# Method: Test substances (i.e., tapentadol (1 mg/kg) and tapentadol valine carbamate (0.8 mg tapentadol base equivalents/kg)) were administered by oral gavage to a group of five dogs (dog nos. 1, 2, 3, 4 and 5) in a two-way crossover design. […] Blood samples were taken at various times after administration and submitted to analysis for the parent drug and pro-drug using a validated LC-MS-MS assay. Pharmacokinetic parameters derived from the plasma analytical data were determined using Win Nonlin.
readout-name: AUC (ng·h/mL)

| molecule | readout-name | measurement-unit | meas-value |
| --- | --- | --- | --- |
| CC[C@@H](c1cccc(O)c1)[C@@H](C)CN(C)C (racemic) [Tapentadol] | AUC | ng·h/mL | 2.78 |
